assay comment: Human liver microsome stability
Assay type: in vitro ADME
condition summary: human, pooled human liver microsomes, pH 7.4, pooled human liver microsomes 0.5 mg/mL, 1 μM compound, NADPH 1 mM, 37° C., 0-60 min; read-out: HLM Metabolism t1/2
assay endpoint: half-life at 1 μM

• CC(c1cnc(C(F)(F)F)cn1)N1C[C@@H](C)n2nc3c(c2C1=O)CN(C(=O)c1ccc(Cl)c(Cl)c1)[C@H](C)C3 (single isomer, unassigned) [Compound 7A] = > 180 min
• C[C@@H]1Cc2nn3c(c2CN1C(=O)c1ccc(Cl)c(C(F)(F)F)c1)C(=O)N([C@@H](C)c1ccc([S@](C)(=N)=O)cc1)C[C@H]3C (relative stereo) [Compound 19C] = > 180 min
• C[C@@H]1Cc2nn3c(c2CN1C(=O)c1ccc(Cl)c(C#N)c1)C(=O)N([C@@H](C)c1ccc(OC(F)F)cc1)CC3 [Ref 2, reference compound] = 37.8 min
• CC(c1ccc(C(C)(C)O)nc1)N1C[C@@H](C)n2nc3c(c2C1=O)CN(C(=O)c1cc(C(F)(F)F)c(Cl)cn1)[C@H](C)C3 (single isomer, unassigned) [Compound 58A] = > 180 min
• C[C@@H]1Cc2nn3c(c2CN1C(=O)c1ccc(Cl)c(C#N)c1)C(=O)N([C@H](C)c1ccc(OC(F)F)cc1)CC3 [Ref 1, reference compound] = 35 min
• Cc1ncnn1-c1ccc([C@H](C)N2C[C@@H](C)n3nc4c(c3C2=O)CN(C(=O)c2ccc(Cl)c(Cl)c2)[C@H](C)C4)cn1 (relative stereo) [Compound 25B] = 89.3 min
• CC(c1ccc(C(C)(C)O)cc1)N1C[C@@H](C)n2nc3c(c2C1=O)CN(C(=O)c1ccc(Cl)c(Cl)c1)[C@H](C)C3 (single isomer, unassigned) [Compound 8A] = > 180 min
• CC(c1cnc(C(F)(F)F)nc1)N1C[C@@H](C)n2nc3c(c2C1=O)CN(C(=O)c1ccc(Cl)c(Cl)c1)[C@H](C)C3 (single isomer, unassigned) [Compound 34A] = > 180 min
• CNC(=O)c1ccc(C(C)N2C[C@@H](C)n3nc4c(c3C2=O)CN(C(=O)c2ccc(Cl)c(Cl)c2)[C@H](C)C4)cn1 (single isomer, unassigned) [Compound 24A] = > 180 min
• CNS(=O)(=O)c1ccc(C(C)N2C[C@@H](C)n3nc4c(c3C2=O)CN(C(=O)c2ccc(Cl)c(Cl)c2)[C@H](C)C4)cc1 (single isomer, unassigned) [Compound 17A] = 174 min
• CC(c1cnc(C(C)(C)O)cn1)N1C[C@@H](C)n2nc3c(c2C1=O)CN(C(=O)c1ccc(Cl)c(C(F)(F)F)c1)[C@H](C)C3 (single isomer, unassigned) [Compound 41A] = > 180 min

----------
Entries and their measured HLM Metabolism t1/2 follow.
assay comment: Human liver microsome stability
Type: in vitro ADME
condition summary: pooled human liver microsomes 0.5 mg/mL, 1 μM compound, NADPH 1 mM, 37° C., 0-60 min
assay endpoint: HLM Metabolism t1/2

- CC(c1ccc(C(C)(C)O)nc1)N1C[C@@H](C)n2nc3c(c2C1=O)CN(C(=O)c1ccc(Cl)c(F)c1F)[C@H](C)C3 (single isomer, unassigned) [Compound 61B]: 2.25 h
- CC(c1ccc(C(C)(C)O)nc1)N1C[C@@H](C)n2nc3c(c2C1=O)CN(C(=O)c1ccc(Cl)c(Cl)c1)[C@H](C)C3 (single isomer, unassigned): 2.3 h
- CC(c1cnn(C(C)C)c(=O)c1)N1C[C@@H](C)n2nc3c(c2C1=O)CN(C(=O)c1ccc(Cl)c(C(F)(F)F)c1)[C@H](C)C3 (single isomer, unassigned) [Compound 53B]: 1.18 h
- CC(c1cnc(C(C)(C)O)nc1)N1C[C@@H](C)n2nc3c(c2C1=O)CN(C(=O)c1ccc(Cl)c(C(F)(F)F)c1)[C@H](C)C3 (single isomer, unassigned) [Compound 35B]: >3 h
- CC(c1cnc(C(F)(F)F)cn1)N1C[C@@H](C)n2nc3c(c2C1=O)CN(C(=O)c1ccc(Cl)c(Cl)c1)[C@H](C)C3 (single isomer, unassigned): >3 h
- CC(c1ccc(N2CCCS2(=O)=O)nc1)N1C[C@@H](C)n2nc3c(c2C1=O)CN(C(=O)c1ccc(Cl)c(C(F)(F)F)c1)[C@H](C)C3 (single isomer, unassigned) [Compound 28B]: 2.37 h
- CC(c1ccc(N2CCCC2=O)cc1)N1C[C@@H](C)n2nc3c(c2C1=O)CN(C(=O)c1ccc(Cl)c(C#N)c1)[C@H](C)C3 (single isomer, unassigned) [Compound 9A]: 0.84 h
- CC(c1ccc(S(N)(=O)=O)cc1)N1C[C@@H](C)n2nc3c(c2C1=O)CN(C(=O)c1ccc(Cl)c(Cl)c1)[C@H](C)C3 (single isomer, unassigned) [Compound 16B]: >3 h
- CC(c1ccc(C(C)(C)O)nc1)N1C[C@@H](C)n2nc3c(c2C1=O)CN(C(=O)c1ccc(Cl)c(C#N)c1)[C@H](C)C3 (single isomer, unassigned) [Compound 63B]: >3 h
- CC(c1ccnc(OC(F)F)c1)N1C[C@@H](C)n2nc3c(c2C1=O)CN(C(=O)c1ccc(Cl)c(C(F)(F)F)c1)[C@H](C)C3 (single isomer, unassigned) [Compound 50B]: >3 h
- C[C@@H]1Cc2nn3c(c2CN1C(=O)c1ccc(Cl)c(C(F)(F)F)c1)C(=O)N([C@H](C)c1ccc([S@](C)(=O)=NC#N)cc1)C[C@H]3C (relative stereo) [Compound 20B]: 2.6 h
- CC(c1ccc(C#N)cc1)N1C[C@@H](C)n2nc3c(c2C1=O)CN(C(=O)c1ccc(Cl)c(Cl)c1)[C@H](C)C3 (single isomer, unassigned) [Compound 66B]: >3 h
- Cc1ncc(C(C)N2C[C@@H](C)n3nc4c(c3C2=O)CN(C(=O)c2ccc(Cl)c(Cl)c2)[C@H](C)C4)cn1 (single isomer, unassigned): >3 h
- CC(c1cnc(C2CC2)cn1)N1C[C@@H](C)n2nc3c(c2C1=O)CN(C(=O)c1ccc(Cl)c(Cl)c1)[C@H](C)C3 (single isomer, unassigned): 2.22 h
- Cc1nnn(-c2ccc(C(C)N3C[C@@H](C)n4nc5c(c4C3=O)CN(C(=O)c3ccc(Cl)c(Cl)c3)[C@H](C)C5)cc2)n1 (single isomer, unassigned) [Compound 22B]: 2.13 h
- CC(c1ccc(C(F)(F)F)nc1)N1C[C@@H](C)n2nc3c(c2C1=O)CN(C(=O)c1ccc(Cl)c(C#N)c1)[C@H](C)C3 (single isomer, unassigned) [Compound 12B]: >3 h
- CNS(=O)(=O)c1ccc(C(C)N2C[C@@H](C)n3nc4c(c3C2=O)CN(C(=O)c2ccc(Cl)c(Cl)c2)[C@H](C)C4)cc1 (single isomer, unassigned) [Compound 17B]: 1.6 h
- CC(c1ccn(CC(C)(C)O)c(=O)c1)N1C[C@@H](C)n2nc3c(c2C1=O)CN(C(=O)c1ccc(Cl)c(C(F)(F)F)c1)[C@H](C)C3 (single isomer, unassigned) [Compound 64B]: >3 h
- CC(c1cnc(C(C)(C)O)cn1)N1C[C@@H](C)n2nc3c(c2C1=O)CN(C(=O)c1ccc(Cl)c(C(F)(F)F)c1)[C@H](C)C3 (single isomer, unassigned) [Compound 41B]: 1.65 h
- CC(c1cc(F)c(=O)n(C2CC2)c1)N1C[C@@H](C)n2nc3c(c2C1=O)CN(C(=O)c1ccc(Cl)c(Cl)c1)[C@H](C)C3 (single isomer, unassigned) [Compound 46B]: >3 h
